Conditions: in n-propanol, 313.15 K

structure-smiles-string	solubility (mole fraction)
CCOc1cccc(C=O)c1O	0.176

====

Details: in n-propyl acetate, 288.15 K
measure-name: solubility (mole fraction)

structure-smiles-string	data-value
CCOc1cccc(C=O)c1O	0.164

====

Conditions: in methanol, 278.15 K

structure-smiles-string	solubility (mole fraction)
CCOc1cccc(C=O)c1O	0.0196

====

Settings: in water, 293.15 K
measure-name: solubility (mole fraction)

structure-smiles-string	data-value
CCOc1cccc(C=O)c1O	8.68e-05

====

Conditions: in n-propyl acetate, 293.15 K

structure-smiles-string	solubility (mole fraction)
CCOc1cccc(C=O)c1O	0.205

====

Conditions: in acetone, 313.15 K
measure-name: solubility (mole fraction)

structure-smiles-string	measure-name	data-value
CCOc1cccc(C=O)c1O	solubility (mole fraction)	0.605

====

Conditions: in ethanol, 293.15 K

structure-smiles-string	solubility (mole fraction)
CCOc1cccc(C=O)c1O	0.0433

====

Conditions: in methanol, 298.15 K

structure-smiles-string	solubility (mole fraction)
CCOc1cccc(C=O)c1O	0.132

====

Conditions: in n-butyl acetate, 293.15 K
measure-name: solubility (mole fraction)

structure-smiles-string	data-value
CCOc1cccc(C=O)c1O	0.188

====

Details: in ethanol, 313.15 K
measure-name: solubility (mole fraction)

structure-smiles-string	data-value
CCOc1cccc(C=O)c1O	0.214

====

Conditions: in methanol, 308.15 K

structure-smiles-string	solubility (mole fraction)
CCOc1cccc(C=O)c1O	0.304

====

Conditions: in acetonitrile, 308.15 K

structure-smiles-string	solubility (mole fraction)
CCOc1cccc(C=O)c1O	0.415

====

Conditions: in n-propyl acetate, 313.15 K

structure-smiles-string	solubility (mole fraction)
CCOc1cccc(C=O)c1O	0.464

====

Conditions: in acetone, 303.15 K

structure-smiles-string	solubility (mole fraction)
CCOc1cccc(C=O)c1O	0.446

These entries and their values trace back to BigSolDB 2.1.
